Reference source: ChEMBL document CHEMBL3638641

- system.tested: Orexin receptor type 2 (Homo sapiens)
- Sequence (O43614 whole entry): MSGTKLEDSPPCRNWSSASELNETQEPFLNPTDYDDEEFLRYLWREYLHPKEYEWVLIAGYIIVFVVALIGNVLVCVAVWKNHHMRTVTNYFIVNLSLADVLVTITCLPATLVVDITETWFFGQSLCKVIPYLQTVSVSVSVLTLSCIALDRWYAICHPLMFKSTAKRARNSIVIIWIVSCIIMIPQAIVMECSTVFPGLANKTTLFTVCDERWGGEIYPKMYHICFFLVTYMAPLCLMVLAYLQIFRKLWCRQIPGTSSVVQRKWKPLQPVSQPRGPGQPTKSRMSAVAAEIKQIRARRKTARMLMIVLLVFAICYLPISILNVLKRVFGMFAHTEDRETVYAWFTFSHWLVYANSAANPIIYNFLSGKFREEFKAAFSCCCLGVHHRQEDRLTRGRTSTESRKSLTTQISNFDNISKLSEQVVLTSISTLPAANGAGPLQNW
- test.summary: Radioligand Binding Assay I : For crude cell membrane preparations, cells (CHO, Chinese hamster ovary or HEK, human embryonic kidney) expressing human orexin 1 or human orexin 2 receptors, were washed with HEPES (10 mM, pH 7.5), scraped off the culture plates with the same buffer, and centrifuged at 4 C for 5 min at 2500 x g. The cell pellet was either stored at -80 C or used directly. Before the experiments, cell membranes were re-suspended in binding assay buffer (10 mM HEPES, 0.5% (w/v) bovine serum albumin, pH 7.5) by homogenisation with a Polytron homogeniser at 50 Hz for 20 s. In competition experiments, cell homogenates (150μΙ) were incubated in assay buffer (10 mM HEPES, pH 7.5, 0.5 % (w/v) bovine serum albumin, 5 mM MgCI2, 1 mMCaCI2, and tween 0.05%) for 1 h at room temperature with about 100 pM of the radioligand ([125l]orexin A, 2100 Ci/mmole, 50 μΙ), and with various concentrations of compounds of the invention (50 μΙ) in triplicates.
recorded.metric: pKd
// pKd here means minus log10 of the molar concentration (mol/L)

Measured pKd for this entry C[C@H](NC(=O)COc1cc(C(F)(F)F)c2c(-c3cccc(Cl)c3)nn(C)c2n1)c1ccccc1 on Orexin receptor type 2 (Homo sapiens): 6.32
